Record form. Attribute: ED50. Fill in for each entry.
- Test system: neuronal protein extravasation
- Method Notes: Protein extravasation assay (dura, stimulation of trigeminal ganglion)
- Type: in vivo, guinea pig
- Run Parameters: Cavia porcellus, iv, read-out: Inhibition of Protein Extravasation i.v. ID50
One number for each entry, in µmol/kg.

Each of the following entries comes with a recorded value; kindly state ED50 for each.
1. CN1C[C@H](C(=O)N[C@]2(C)O[C@@]3(O)[C@@H]4CCCN4C(=O)[C@H](Cc4ccccc4)N3C2=O)C[C@@H]2c3cccc4[nH]cc(c34)C[C@H]21 [Dihydroergotamine]
2. CN(C)C1CCc2[nH]c3ccc(O)cc3c2C1 (centres unmarked)
3. CNS(=O)(=O)Cc1ccc2[nH]cc(CCN(C)C)c2c1.O=C(O)CCC(=O)O
4. Oc1ccc2[nH]cc(C3CCNCC3)c2c1

Solution:
1: 2.43e-05; 2: 8.7e-06; 3: 2.6e-05; 4: 8.9e-06

Lookup result for CCN(CC)C1CCc2cccc(Cl)c2C1.Cl (centres unmarked) [Compound IV, hydrochloride] ; measured ED50: 0.00012
